# System: HT29 colon
# assayExplanation: NCI tumour cell line growth inhibition, 48 h; in the data active = GI50 below about 0.43 µM; inactive = the rest
One label from this list, please: active, inactive

The following compounds have reported results that may help.
Challenge: Given COC(=O)C1=C(C(=O)ON)C2C=CC1(C(Cc1ccccc1)Nc1ccccc1)O2 (configuration not stated) , state the outcome it received in this test.
Response given: inactive

Challenge: Given `Cc1c(-c2c(-c3ccc(F)o3)sc3ncnc(O[C@H](Cc4ccccc4OCc4ccnn4CC(F)(F)F)C(=O)O)c23)ccc(OCCN2CCN(C)CC2)c1Cl` , state the outcome it received in this test.
Response given: inactive

Further cases:
Challenge: Given `CC[C@H](Nc1nc(NCc2cnc(C)cc2C)c2ncn(C(C)C)c2n1)[C@@H](C)O` , state the outcome it received in this test.
Response given: active

Challenge: Given `C=CC(=O)N1CCN(c2nc(=O)n(-c3c(C)ccnc3C(C)C)c3nc(-c4c(O)cccc4F)c(F)cc23)[C@@H](C)C1` , state the outcome it received in this test.
Response given: inactive

Challenge: Given `COc1cc2cc(Oc3ccc(NC(=O)Nc4cccc(C(F)(F)F)c4)cc3)c(C)nc2cc1OC` , state the outcome it received in this test.
Response given: inactive

Challenge: Given `CCCc1cc2c(=O)c(C(=O)OC)c[nH]c2cc1N(CC)CC` , state the outcome it received in this test.
Response given: inactive

Challenge: Given O=c1ccn(C2OC(CO/N=C/c3ccc(O)c(O)c3O)C(O)C2O)c(=O)[nH]1 (configuration not stated) , state the outcome it received in this test.
Response given: inactive

---

# System: SN12C renal
# assayExplanation: NCI tumour cell line growth inhibition, 48 h
Let's look at some compounds and their measured TGI.

Challenge: Consider the compound `COC(=O)c1sc2ncc3c(c2c1N)CCCCCC3` and give its measured TGI.
Response given: > 100 µM

Challenge: Consider the compound `O=C1C=C(Sc2ccccc2)c2nccc3c2c1nc1ccccc13` and give its measured TGI.
Response given: 32.2 µM

Challenge: Consider the compound `Cc1cc(S(N)(=O)=O)c(S/C(CC(C)C)=N\Nc2ccc([N+](=O)[O-])cc2)cc1Cl` and give its measured TGI.
Response given: 9.88 µM

Challenge: Consider the compound O=C1c2ccccc2NC(=O)C2C1C(c1ccccc1)CC2(O)c1ccccc1 (stereo unspecified) and give its measured TGI.
Response given: > 100 µM

Challenge: Consider the compound CC(OC(C)(C)C)[C@H](NC(=O)OC(C)(C)C)C(=O)O (stereo partly specified) and give its measured TGI.
Response given: > 100 µM

Further cases:
Challenge: Consider the compound `O=C(Nc1cc(Cl)cc(Cl)c1)c1ccc(NC2=C(Cl)C(=O)N(Cc3ccc(Cl)cc3Cl)C2=O)cc1` and give its measured TGI.
Response given: 60.6 µM

---

Let's look at some compounds and their measured TGI.
# Test system: SK-MEL-5 melanoma
# assayExplanation: NCI tumour cell line growth inhibition, 48 h
Number only, in µM; omit the unit.

Challenge: Consider the compound `Oc1cc(Br)cc2cccnc12` and give its measured TGI.
Response given: 15.1

Further cases:
Challenge: Consider the compound `NC(N)=N/N=C\c1cccc(OCc2ccccc2)c1` and give its measured TGI.
Response given: 3.12

Challenge: Consider the compound `COc1cc(CNc2ccc3nc4n(c(=O)c3c2)CCCCC4)cc(OC)c1OC` and give its measured TGI.
Response given: 50.8

Challenge: Consider the compound `O=C(CCc1ccccc1)ON1C(=S)NC(c2ccccc2)(c2ccccc2)C1=S` and give its measured TGI.
Response given: 40.6
